target: T1, monovalent hVISTA-ECD with polyhistidine tail (SEQ ID NO: 325) (human, UniProt Q9H7M9 33-193); experiment: SPR, mAb captured on Protein A chip, hVISTA injected, PBST pH 7.4, 37 C
T1 construct: also called hVISTA-ECD 6-His tag; human VISTA
T1 sequence (Q9H7M9 other isoform, or with tags, fused parts or gaps limits assumed): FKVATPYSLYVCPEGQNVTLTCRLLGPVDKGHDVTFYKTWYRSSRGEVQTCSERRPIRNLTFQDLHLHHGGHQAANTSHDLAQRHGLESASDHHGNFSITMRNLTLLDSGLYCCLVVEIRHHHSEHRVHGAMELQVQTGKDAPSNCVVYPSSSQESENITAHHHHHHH

binder	kon
P1-077881 (P1-068748 D58Y D100S) (antibody, V domains shown, Reversion mutant of P1-068748 (Kabat names); captured on a Protein A chip) VH: QVQLVESGGGVVQPGRSLRLSCAASGFTFSHHAMHWVRQAPGKGLEWVAIIWYDGSNDYYADSVKGRFTISRDNSKNTLYLQMNSLRAEDTAVYYCARDSGFYSSYYFDYWGQGTLVTVSS VL: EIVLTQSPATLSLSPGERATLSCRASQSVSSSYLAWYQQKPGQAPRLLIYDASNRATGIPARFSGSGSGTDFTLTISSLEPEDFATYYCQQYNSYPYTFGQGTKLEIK	160000 M⁻¹ s⁻¹
P1-077893 (P1-068748 D57K D100S) (antibody, V domains shown, Reversion mutant of P1-068748 (Kabat names); the antibody was captured on a Protein A chip, so an Fc was present) VH: QVQLVESGGGVVQPGRSLRLSCAASGFTFSHHAMHWVRQAPGKGLEWVAIIWYDGSNKDYADSVKGRFTISRDNSKNTLYLQMNSLRAEDTAVYYCARDSGFYSSYYFDYWGQGTLVTVSS VL: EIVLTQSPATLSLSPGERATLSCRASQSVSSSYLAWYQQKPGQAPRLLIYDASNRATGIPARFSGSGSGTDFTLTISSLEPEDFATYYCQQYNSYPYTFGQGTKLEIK	400000 M⁻¹ s⁻¹
P1-077875 (P1-068748 H31S H32Y) (antibody, V domains shown, Reversion mutant of P1-068748 (Kabat names); captured on a Protein A chip) VH: QVQLVESGGGVVQPGRSLRLSCAASGFTFSSYAMHWVRQAPGKGLEWVAIIWYDGSNDDYADSVKGRFTISRDNSKNTLYLQMNSLRAEDTAVYYCARDSGFYDSYYFDYWGQGTLVTVSS VL: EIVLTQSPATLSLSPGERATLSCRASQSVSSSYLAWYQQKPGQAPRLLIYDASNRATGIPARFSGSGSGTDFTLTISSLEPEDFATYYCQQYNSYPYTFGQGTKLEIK	160000 M⁻¹ s⁻¹
